target: ErbB2 WT (Homo sapiens (Human)); assay: ErbB Enzyme Assay (HTRF KinEASE-TK), Assay 2; type: biochemical; conditions: ErbB2 WT enzyme assay
Sequence (P04626 23-1255): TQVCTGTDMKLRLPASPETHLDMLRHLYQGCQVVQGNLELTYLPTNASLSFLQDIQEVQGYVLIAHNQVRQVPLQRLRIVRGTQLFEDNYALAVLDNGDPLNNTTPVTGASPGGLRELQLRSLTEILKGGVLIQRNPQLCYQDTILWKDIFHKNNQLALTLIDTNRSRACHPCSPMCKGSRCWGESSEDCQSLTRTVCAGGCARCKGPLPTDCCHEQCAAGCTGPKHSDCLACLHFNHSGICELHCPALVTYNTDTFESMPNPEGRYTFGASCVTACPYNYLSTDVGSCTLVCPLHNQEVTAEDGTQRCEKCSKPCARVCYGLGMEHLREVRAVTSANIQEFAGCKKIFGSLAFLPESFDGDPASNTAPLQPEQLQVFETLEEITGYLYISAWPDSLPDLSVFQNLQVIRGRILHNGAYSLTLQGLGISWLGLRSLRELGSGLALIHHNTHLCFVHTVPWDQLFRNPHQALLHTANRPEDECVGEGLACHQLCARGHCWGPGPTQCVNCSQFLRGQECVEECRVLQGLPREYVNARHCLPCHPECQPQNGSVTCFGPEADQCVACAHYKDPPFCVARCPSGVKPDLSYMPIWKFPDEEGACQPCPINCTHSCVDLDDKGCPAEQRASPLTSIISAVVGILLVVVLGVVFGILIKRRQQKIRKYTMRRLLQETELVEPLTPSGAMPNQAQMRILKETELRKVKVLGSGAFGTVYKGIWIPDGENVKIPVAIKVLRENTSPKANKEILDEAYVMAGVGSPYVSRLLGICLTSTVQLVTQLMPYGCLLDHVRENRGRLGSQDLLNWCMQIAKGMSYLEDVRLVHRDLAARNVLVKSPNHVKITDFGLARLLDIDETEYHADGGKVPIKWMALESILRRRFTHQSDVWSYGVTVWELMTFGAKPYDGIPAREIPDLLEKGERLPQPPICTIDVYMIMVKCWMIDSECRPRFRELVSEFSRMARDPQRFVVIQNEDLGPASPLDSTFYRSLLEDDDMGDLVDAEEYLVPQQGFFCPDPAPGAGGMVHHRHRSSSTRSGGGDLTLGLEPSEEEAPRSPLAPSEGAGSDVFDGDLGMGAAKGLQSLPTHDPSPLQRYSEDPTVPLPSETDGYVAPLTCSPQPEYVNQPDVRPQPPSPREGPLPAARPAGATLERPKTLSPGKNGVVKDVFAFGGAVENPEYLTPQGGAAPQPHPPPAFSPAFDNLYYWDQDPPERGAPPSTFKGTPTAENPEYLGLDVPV
For each entry below, report its pIC50 value.
Give bare numbers, as −log10 of the molar value.

Could you tell me pIC50 for each of these compounds? They are listed below.
1. C=CC(=O)N1CCCC(c2ccc3ncnc(Nc4cc(C)c(Oc5ccn6ncnc6c5)cc4F)c3n2)C1 (centres unmarked) [Example 370]
2. C=CC(=O)N1CCN(c2ccc3ncnc(Nc4ccc(Oc5ccn6ncnc6c5)c(Cl)c4F)c3n2)C[C@@H]1COC [Example 348]
3. C=CC(=O)N1C[C@H]2CC[C@@H]1[C@@H](c1ccc3ncnc(Nc4ccc(Oc5ccn6ncnc6c5)c(C)c4F)c3n1)C2 [Example 398]
4. C=CC(=O)N1C[C@H]2CC[C@@H]1CN2c1ccc2ncnc(Nc3ccc(Oc4ccn5ncnc5c4)c(Cl)c3F)c2n1 [Example 328]
5. C=CC(=O)N1CCN(c2ccc3ncnc(Nc4ccc(Oc5ccn6ncnc6c5)c(C(F)F)c4)c3n2)CC1(C)C [Example 451]
6. C=CC(=O)N(C)[C@H]1CCN(c2ccc3ncnc(Nc4ccc(Oc5ccn6ncnc6c5)c(C)c4F)c3n2)C1 [Example 352]

Result:
1: 7.25; 2: 7.92; 3: 7.81; 4: 7.30; 5: 6.97; 6: 7.60

Value sought for every listed compound: pIC50.
1. C=CC(=O)N1C[C@@H]2CC[C@H]1CN2c1ccc2ncnc(Nc3cc(C)c(Oc4ccn5ncnc5c4)cc3F)c2n1 [Example 319]
2. C=CC(=O)N1C[C@H]2CC[C@@H]1CN2c1ccc2ncnc(Nc3cc(Cl)c(Oc4ccn5ncnc5c4)cc3F)c2n1 [Example 330]
3. C=CC(=O)N1C[C@@H]2CC[C@H]1CN(c1ccc3ncnc(Nc4ccc(Oc5ccn6ncnc6c5)c(C)c4F)c3n1)C2 (racemic) [Example 327]
4. C=CC(=O)N1CCN(c2ccc3ncnc(Nc4ccc(Oc5ccn6ncnc6c5)c(C)c4F)c3n2)C[C@@H]1COC [Example 362]
5. C=CC(=O)N1CCN(c2ccc3ncnc(Nc4cc(Cl)c(Oc5ccn6ncnc6c5)cc4F)c3n2)CC1(C)C [Example 326]
6. C=CC(=O)N1CCCC(c2ccc3ncnc(Nc4ccc(Oc5ccn6ncnc6c5)c(C)c4)c3n2)CC1 (centres unmarked) [Example 401]

Result:
1: 8.09; 2: 6.62; 3: 7.89; 4: 8.01; 5: 7.73; 6: 8.04

Hi team, please reply with pIC50 for each item in this list.
1. C=CC(=O)N1CC[C@@H]2C[C@H]1CN2c1ccc2ncnc(Nc3cc(C)c(Oc4ccn5ncnc5c4)cc3F)c2n1 [Example 332]
2. C=CC(=O)N1C2CC1CN(c1ccc3ncnc(Nc4ccc(Oc5ccc6c(c5)ncn6C)c(Cl)c4F)c3n1)C2 [Example 325]
3. C=CC(=O)N1CCC(c2ccc3ncnc(Nc4ccc(Oc5ccn6ncnc6c5)c(C)c4F)c3n2)CC12CC2 (centres unmarked) [Example 270]

Result:
[7.96, 7.67, 7.68]

Below are 2 compounds. Give each one its pIC50.
1. C=CC(=O)N1CCCC(c2ccc3ncnc(Nc4ccc(Oc5cnc6c(c5)ncn6C)c(C)c4F)c3n2)CC1 (centres unmarked) [Example 413]
2. C=CC(=O)N1C[C@H]2CC[C@H](c3ccc4ncnc(Nc5ccc(Oc6ccn7ncnc7c6)c(C)c5)c4n3)[C@H]2C1 [Example 409]

Result:
7.10
7.37
